Reference for the values: paper PMC12416549

# targetDesc: T1, TNFR1 (Homo sapiens, UniProt P19438)
# T1 chain: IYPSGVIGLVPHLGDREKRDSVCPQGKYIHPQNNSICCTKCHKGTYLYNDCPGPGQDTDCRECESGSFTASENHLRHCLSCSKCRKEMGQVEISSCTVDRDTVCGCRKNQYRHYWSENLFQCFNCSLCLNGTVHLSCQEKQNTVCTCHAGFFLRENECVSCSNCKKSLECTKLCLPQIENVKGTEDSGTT
# assayName: yeast display SC50
measuredQuantity: apparent Kd (screen) (nM)

a: E81H (designed binder) MTLQELLREEALRRAEAEAFRYALELLAEKFPEQKEYLLDLAEEIESQIRSLSGVDVEDVRKFLDKEWAWVKELLAEHPAHLAEVEAARAARLAELRAEVEAKVAA
b: L52P (designed binder) MTLQELLREEALRRAEAEAFRYALELLAEKFPEQKEYLLDLAEEIESQIRSPSGVDVEDVRKFLDKEWAWVKELLAEHPAELAEVEAARAARLAELRAEVEAKVAA
c: E9I (designed binder) MTLQELLRIEALRRAEAEAFRYALELLAEKFPEQKEYLLDLAEEIESQIRSLSGVDVEDVRKFLDKEWAWVKELLAEHPAELAEVEAARAARLAELRAEVEAKVAA
QUERY: Order the 3 binders from highest to lowest apparent Kd (screen). To answer, write out the labels according to the requested order.
RESULT: b, c, a
